- System: INSR
- Measurement setup: concentration: 1 μM, replicates: in singlicate; n = 1;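 also: KINOMEscan kinase panel screen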
Reported %Inh by item:
Entry rule: numbers only, all in %.

Sample records with %Inh:
COc1cc(Nc2nccc(-c3c(-c4cccc(NC(=O)c5c(F)cccc5F)c4)nn4ccccc34)n2)cc(OC)c1OC : 13
CN1CCN(CCCNc2nccc(-c3c(-c4ccc(F)cc4)nn4cc(C(F)(F)F)ccc34)n2)CC1 : 0
Cc1ccc(C(=O)Nc2ccc(Nc3ccnc4cc(-c5nccs5)ccc34)cc2O)cc1.Cl : 100
COc1cc(Nc2ncc3c(C)nc(-c4cc5ccccc5[nH]4)n3n2)cc(OC)c1OC : 4
FC(F)(F)c1ccc(/C=C/c2cncnc2Nc2ccc3[nH]c(Cc4ccccc4)nc3c2)cc1 : 0
O=C(Nc1ccccc1F)NC1CCN(c2ccnc(Nc3ccc(F)cc3)n2)CC1 : 0
Cc1ccc(F)c(C(=O)Nc2cccc(-c3nn4ccccc4c3-c3ccnc(Nc4cccc(F)c4)n3)c2)c1F : 25

query: Provide the documented %Inh with INSR as the system for Cn1cc(-c2[nH]c3cc(NC(=O)[C@H](N)C4CCCCC4)cc4c3c2C=NNC4=O)cn1
result: 0

* * *

- Tested on: NEK7
- Measurement setup: concentration: 1 μM, replicates: in singlicate; n = 1
Result type: %Inh (%)
Entry rule: numbers only, all in %.

Sample records with %Inh:
Clc1ccc(-c2nn3ncccc3c2-c2ccnc(Nc3ccc4c(c3)OCCO4)n2)cc1 [GW829116] : 0
COc1cccc(NC(=O)NC2CCN(c3ccnc(Nc4cc(OC)c(OC)c(OC)c4)n3)C2)c1 (stereo not shown) [GSK1379763] : 52
COc1ccc(-c2coc3ccc(-c4nnc(SCc5ccc(OC)c(C(F)(F)F)c5)o4)cc23)cc1 : 0

query: Which value of %Inh has been reported for CN1CCN(Cc2cccc(-c3ccc4c(Nc5ccc(Oc6ccccc6)cc5)ccnc4c3)c2)CC1 [GW578342] in the records?
result: 0

* * *

Reported %Inh by item:
- System: DCAMKL3
- Construct: gene DCLK3
- Measurement setup: concentration: 1 μM, replicates: in singlicate; n = 1

Sample records with %Inh:
O=C(Nc1n[nH]c2cc(-c3ccoc3)ccc12)C1CC1 [SB-738481] : 0%
FC(F)(F)c1ccc(/C=C/c2cncnc2Nc2ccc3[nH]c(Cc4ccccc4)nc3c2)cc1 [GW709199] : 21%
Cl.c1ccc(-c2ccc3c(Nc4ccc5[nH]ccc5c4)ccnc3c2)nc1 [GW440138] : 17%

query: Which value of %Inh has been reported for COc1cccc(C2=C(Nc3ccc(Cl)c(C(=O)O)c3)C(=O)NC2=O)c1 [SB-390769] in the records?
result: 1%

query: Which value of %Inh has been reported for O=C(Nc1cccc(-c2nn3ncccc3c2-c2ccnc(Nc3ccccc3)n2)c1)c1c(F)cccc1F [GSK198271] in the records?
result: 20%

query: Which value of %Inh has been reported for COc1cc2c(cc1OCCN1CCNCC1)ncc1c3ccc(C#N)cc3[nH]c21 in the records?
result: 4%

query: Which value of %Inh has been reported for Fc1ccc(-c2ncn(C3CCNCC3)c2-c2ccnc(Oc3ccc(-c4ccccc4)cc3)n2)cc1 [SB-245391] in the records?
result: 18%

query: Which value of %Inh has been reported for C[C@@H](Oc1cc(-n2cnc3cc(-c4ccnc(NCCS(C)(=O)=O)c4)ccc32)sc1C(N)=O)c1ccccc1Cl [GSK907232] in the records?
result: 0%

* * *

- Test system: PAK1
- Measurement setup: concentration: 1 μM, replicates: in singlicate; n = 1
Reported %Inh by item:
Please state the value followed by its unit.

query: Which value of %Inh has been reported for COC(=O)Nc1nc2ccc(Oc3ccc(NC(=O)Nc4cc(C(F)(F)F)ccc4F)cc3)cc2n1C.Cl [GW692089] in the records?
result: 0%

query: Which value of %Inh has been reported for CC(=O)N1CCN(c2ccc(Nc3nccc(-c4sc(C(C)C)nc4-c4cccc(NS(=O)(=O)c5cccc(Cl)c5)c4)n3)cn2)CC1 [GSK1660437] in the records?
result: 72%

query: Which value of %Inh has been reported for COc1ccc(Nc2nccc(NCCNC(=O)c3cc4ccccc4s3)n2)cc1 [GSK1379896] in the records?
result: 7%

* * *

- Tested on: ACVR1B
- Measurement setup: concentration: 1 μM, replicates: in singlicate; n = 1
Result type: %Inh (%)
Entry rule: numbers only, all in %.

Sample records with %Inh:
Fc1ccc(-c2ncn(C3CCNCC3)c2-c2ccnc(Oc3ccc(-c4ccccc4)cc3)n2)cc1 : 72
O=C(O)C(F)(F)F.O=C(O)C(F)(F)F.O=c1[nH]ccc2nc(N[C@@H]3CCCNC3)nc(Nc3ccc(S(=O)(=O)N4CCOCC4)cc3)c12 : 2
Cn1cc(-c2ccc3c(c2)CCN3C(=O)Cc2cccc(F)c2)c2c(N)ncnc21 : 0
Nc1ncc(-c2cccnc2)c2scc(-c3ccc4c(c3)CCN4C(=O)Cc3ccccc3)c12 : 0
Cn1cc(-c2[nH]c3cc(NC(=O)[C@H](N)C4CCCCC4)cc4c3c2C=NNC4=O)cn1 : 3
COc1ccc(Nc2nccc(NCCNC(=O)c3cc4ccccc4s3)n2)cc1 : 0
Cc1cccc(Nc2nc(N[C@H]3CCNC3)ncc2C(N)=O)c1.Cl : 0

Read the next record carefully.
query: Which value of %Inh has been reported for CSc1cccc2c(-c3ccncn3)c(-c3ccc(F)cc3)nn12 in the records?
result: 43

* * *

- Test system: FLT4
- Measurement setup: concentration: 1 μM, replicates: in singlicate; n = 1
Result type: %Inh (%)
Entry rule: numbers only, all in %.

c1ccc(Oc2ccc(Nc3ccnc4cc(-c5ccc(CNCCN6CCOCC6)o5)ccc34)cc2)nc1 : 0
CN1CCN(CCCNc2nccc(-c3c(-c4ccc(F)cc4)nn4cc(C(F)(F)F)ccc34)n2)CC1 : 16
O=C(Nc1n[nH]c2cc(-c3ccoc3)ccc12)C1CC1 : 0
COc1ccc(Nc2nccc(N3CCC(NC(=O)Nc4cccc(OC)c4)C3)n2)cc1 (stereo not drawn) : 0
Cc1ccc(C(=O)Nc2ccc(Nc3ccnc4cc(-c5nccs5)ccc34)cc2O)cc1.Cl : 0

query: Which value of %Inh has been reported for Cn1cc(-c2ccc3c(c2)CCN3C(=O)Cc2cccc(F)c2)c2c(N)ncnc21 in the records?
result: 6

query: Which value of %Inh has been reported for NCCCC(NC(=O)c1cc(Br)c(-c2ccnc3[nH]ccc23)s1)c1ccccc1.O=C(O)C(F)(F)F.O=C(O)C(F)(F)F (stereo not drawn) in the records?
result: 38

query: Which value of %Inh has been reported for COc1ccc(CNC(=O)NC2CCN(c3ccnc(Nc4ccc(F)cc4)n3)CC2)cc1 in the records?
result: 0

query: Which value of %Inh has been reported for COc1cccc(C(=O)Nc2cccc(Oc3ccc4nc(NC(=O)C5CC5)cn4n3)c2)c1 in the records?
result: 100

* * *

- Tested on: MUSK
- Measurement setup: concentration: 1 μM, replicates: in singlicate; n = 1
Sorting guide: entries reporting %Inh beneath 8% go in the y pile, the rest go in the n pile.

Worked cases, answers included:
CCn1c(-c2nonc2N)nc2c(C#CC(C)(C)O)nc(OC[C@H](N)c3ccccc3)cc21 : y
O=C(Nc1cccc(-c2nn3ccccc3c2-c2ccnc(Nc3cccc(F)c3)n2)c1)c1c(F)ccc(F)c1Cl : n
CN1CCN(Cc2cccc(-c3ccc4c(Nc5ccc(Oc6ccccc6)cc5)ccnc4c3)c2)CC1 : n
c1ccc(-c2n[nH]cc2Nc2ccnc3ccccc23)nc1 : y
CCc1ccc(-c2ccc3c(c2)-c2c(cnn2C)S(=O)(=O)N3C)cc1 : n

query: Please determine if Cc1ccc(F)c(C(=O)Nc2cccc(-c3nn4ccccc4c3-c3ccnc(Nc4cccc(F)c4)n3)c2)c1F is below 8% in terms of %Inh.
result: n

query: Please determine if Cl.c1ccc(-c2ccc3c(Nc4ccc5[nH]ccc5c4)ccnc3c2)nc1 is below 8% in terms of %Inh.
result: y

* * *

Reported %Inh by item:
- Test system: PIP5K1A
- Measurement setup: concentration: 1 μM, replicates: in singlicate; n = 1
Entry rule: numbers only, all in %.

query: Which value of %Inh has been reported for CCn1c(-c2nonc2N)nc2c(C#CC(C)(C)O)nc(OC[C@H](N)c3ccccc3)cc21 [GSK943949] in the records?
result: 0

query: Which value of %Inh has been reported for COc1ccc(CNC(=O)NC2CCN(c3ccnc(Nc4ccc(F)cc4)n3)CC2)cc1 [GSK1379788] in the records?
result: 5

query: Which value of %Inh has been reported for Cl.NC(=O)c1cccc(Nc2nccc(Nc3ccc(Oc4c(Cl)cccc4Cl)c(Cl)c3)n2)c1 [GW659009] in the records?
result: 0

query: Which value of %Inh has been reported for Cl.Cl.NCC(NC(=O)c1cc(-c2ccccc2)c(-c2ccnc3[nH]ccc23)s1)c1ccccc1 (stereo not shown) [GSK1321561] in the records?
result: 8
